Data origin, for the record: patent US9856228B2

experiment: Test for metabolic stability, Mouse Liver Microsomes; type: in vitro ADME; conditions: mouse, liver microsomes, pH 7.4, mouse liver microsomes 1.0 mg/mL, 5 μM test compound, NADPH; read-out: Metabolic stability mouse microsomes t½
reported.property: half-life at 5 μM

# compound, half-life at 5 μM
measured = [
    ("CN1CCN(Cc2ccc(-c3ccc(C[C@@H](C#N)NC(=O)C4(N)CCCCC4)cc3)cc2)CC1 [PZ1024, reference compound]", "~10 min"),
    ("CN1CCN(Cc2ccc(-c3ccc(C[C@@H](C#N)NC(=O)C4(N)CCOCC4)cc3)cc2)CC1 [PZ1025]", "~65 min"),
]

Pending compound:
Exercise: Respond only with half-life at 5 μM recorded for CN1CCN(S(=O)(=O)c2ccc(-c3ccc(C[C@@H](C#N)NC(=O)C4(N)CCOCC4)cc3)cc2)CC1 [PZ1032, reference compound]
Solution: 35 min
